Reported drug sensitivity score values for the following molecules.
Tested on: MFM-223
Test: drug sensitivity score (DSS), CellTiter-Glo (DSS (AUC-based score)); higher = stronger drug effect (viability inhibition or cytotoxicity); extreme values may be limits of the assay
Details: incubation time: 72 h

{"Molecule": "CNC(=O)c1cc(Oc2ccc(NC(=O)Nc3ccc(Cl)c(C(F)(F)F)c3)c(F)c2)ccn1 [Regorafenib]", "Assayed system": "MFM-223", "drug sensitivity score": 6.42}
{"Molecule": "COCC[n+]1c2c(n(Cc3cnccn3)c1C)C(=O)c1ccccc1C2=O [YM155]", "Assayed system": "MFM-223", "drug sensitivity score": 28.4}
{"Molecule": "N#Cc1ccc(COC[C@H]2O[C@@H](n3c(NCc4ccc(Cl)c(Cl)c4)nc4c(N)ncnc43)[C@H](O)[C@@H]2O)cc1", "Assayed system": "MFM-223", "drug sensitivity score": 0.407}
{"Molecule": "NC(=O)c1ccc(I)c([N+](=O)[O-])c1 [Iniparib]", "Assayed system": "MFM-223", "drug sensitivity score": 0}

These measurements were taken from the supplement of paper PMC4862054.
